tested on: NCI/ADR-RES ovarian; test: NCI-60 one-dose screen, 48 h; conditions: 10 µM unless noted
Compounds without any hit were thinned out: in the full panel of roughly 83,000, 20% have a hit. Active and inactive are the calls of the source. Rule for the calls: active = growth percent below 10; inactive = the rest.
API: response.call in active, inactive

{"compound": "Cc1ccc(C2CC(c3cccs3)=NN2c2ccc(S(N)(=O)=O)cc2)s1 (centres undefined)", "label-class": "inactive"}
{"compound": "Cc1ccc2cc3c(NC(=O)c4cccnc4)nn(C)c3nc2c1", "label-class": "inactive"}

What did this assay record as the result for CCc1ccc2c(c1)N(CCO)C1=C(C(=O)OC1)C2c1cccc(Br)c1 (centres undefined) ?
active

What did this assay record as the result for Nc1nc2ccc([C@@H]3Nc4ccc5[nH]ncc5c4[C@H]4[C@H]5CCC(C5)[C@H]43)cc2s1 ?
inactive

What did this assay record as the result for C=C1NC(=O)C(C(C)CC)NC(=O)C2CSCC(NC(=O)CCC(=O)O)C(=O)NC(Cc3ccccc3)C(=O)NC(C)C(=O)NC(CC(C)CC)C(=O)NC(C(=O)NC(Cc3ccccc3)C(=O)N3CCCC3C(=O)N2)C(C)OC(=O)C(CO)NC(=O)C(C(O)COC)N(C)C(=O)C(C(C)C)NC(=O)C(CC(C)CC)NC1=O (centres undefined) ?
active

What did this assay record as the result for COc1ccc(C(=O)c2c(N)nc3n2CCCC3)cc1OC ?
inactive

What did this assay record as the result for CCOC(=O)c1ccc(NCCC(=O)O)cc1 ?
inactive

What did this assay record as the result for FC1(F)CCN(Cc2c[nH]c3cc(Cl)ccc23)C[C@H]1CCc1ccccc1 ?
inactive

What did this assay record as the result for COc1cc(OC)cc(-c2n/c(=C\c3c(O)[nH]c4ccc(Cl)cc34)cc3c2=Nc2ccccc2-3)c1 ?
inactive

What did this assay record as the result for CCCCN(CCCC)CCC(O)c1cc2ccc(C(F)(F)F)cc2c2cc(C(F)(F)F)ccc12 (centres undefined) ?
inactive

What did this assay record as the result for O=C(Cn1nncc1CN1C(=O)CSC1=O)Nc1ccc(F)cc1 ?
inactive

What did this assay record as the result for COc1cc(NC(C)CCCN)c2ncccc2c1Oc1ccc(Cl)cc1 (centres undefined) ?
inactive

What did this assay record as the result for CCC1CCc2nc3sc(C(=O)Nc4cccc(F)c4)c(N)c3cc2C1 (centres undefined) ?
inactive

What did this assay record as the result for CCN(CC)c1ccc(C(=N)c2ccc(N(C)C)cc2)cc1 ?
active

What did this assay record as the result for O=c1[nH]cnc2nc[nH]c12 ?
inactive

What did this assay record as the result for O=C(Nc1ccc(OS(=O)(=O)c2ccc(F)cc2)cc1)C12CC3CC(CC(C3)C1)C2 ?
inactive

What did this assay record as the result for COc1ccc(NC(=O)/C=C/c2ccc(NC(=O)N3CCCC3)cc2)cn1 ?
inactive
